Documented IC50 across a set of compounds
Molecular target: human full length HSD11β1 (Homo sapiens, UniProt P28845)
Construct: transient expression of human full length HSD11β1 expression vector
Sequence (P28845 whole entry): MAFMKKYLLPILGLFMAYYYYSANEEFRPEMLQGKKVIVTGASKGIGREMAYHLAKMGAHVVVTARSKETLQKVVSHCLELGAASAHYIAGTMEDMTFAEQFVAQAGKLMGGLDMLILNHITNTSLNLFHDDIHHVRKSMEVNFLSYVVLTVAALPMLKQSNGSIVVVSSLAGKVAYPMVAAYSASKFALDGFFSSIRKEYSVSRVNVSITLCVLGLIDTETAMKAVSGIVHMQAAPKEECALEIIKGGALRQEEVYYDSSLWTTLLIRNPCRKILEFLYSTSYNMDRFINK
Experiment: In Vitro HSD11β1 Inhibition Assay
Details: CHO cells transiently expressing human HSD11β1; 200 nM cortisone+500 uM NADPH overnight; cortisone to cortisol by LC/MS-MS; read-out: 11βHSD1 (IC50)

Example results:
{"compound": "COc1c(C)ccc2[nH]cc(C(C)CC(=O)N3C4CC5CC3CC(O)(C5)C4)c12 (centres unmarked)", "IC50": "0.2 to 0.25 µM"}
{"compound": "Cn1cc(CCC(=O)N2C3CC4CC2CC(O)(C4)C3)c2c(F)cccc21", "IC50": "> 0.25 µM"}
{"compound": "O=C(CCc1c[nH]c2cccc(C3CC3)c12)N1C2CC3CC1CC(O)(C3)C2", "IC50": "< 0.1 µM"}

From here, focus on the item given below.
Exam item: Quick one: IC50 of O=C(CC(c1c[nH]c2cccc(F)c12)C1CC1)N1C2CC3CC1CC(O)(C3)C2 (centres unmarked) ?
Marked response: 0.1 to 0.15 µM

* * *

Consider the following molecules and their measured IC50 readings.
Biological target: human full length HSD11β1 (Homo sapiens, UniProt P28845)
Construct: transient expression of human full length HSD11β1 expression vector
Assay: In Vitro HSD11β1 Inhibition Assay
Details: CHO cells transiently expressing human HSD11β1; 200 nM cortisone+500 uM NADPH overnight; cortisone to cortisol by LC/MS-MS; read-out: 11βHSD1 (IC50)

{"molecule": "CC(CC(=O)N1C2CC3CC1CC(C(=O)O)(C3)C2)c1c[nH]c2cccc(C3CC3)c12 (single isomer, unassigned) [Example 53]", "IC50": "> 250 nM"}
{"molecule": "Cc1cccc2c(C(C)CC(=O)N3C4CC5CC3CC(O)(C5)C4)c[nH]c12 (stereo not shown) [Compound 78]", "IC50": "> 250 nM"}
{"molecule": "COc1ccc2[nH]cc(C(C)CC(=O)N3C4CC5CC3CC(O)(C5)C4)c2c1 (stereo not shown) [Compound 109]", "IC50": "> 250 nM"}

Exam item: # input molecule: COC12CC3CC(C1)N(C(=O)CC(C)c1c[nH]c4cccc(F)c14)C(C3)C2 (single isomer, unassigned) [Example 31] ; wanted: its IC50
Marked response: < 100 nM

Exam item: Same question, CC(CC(=O)N1C2CC3CC1CC(C(=O)Nc1ccc(F)cc1)(C3)C2)c1c[nH]c2cccc(Cl)c12 (stereo not shown) [Example 45] this time
Marked response: > 250 nM

Exam item: Moving on to CC(CC(=O)N1C2CC3CC1CC(OCC1CC1)(C3)C2)c1c[nH]c2cccc(F)c12 (stereo not shown) [Example 33]
Marked response: > 250 nM

Exam item: Likewise for CC(CC(=O)N1C2CC3CC1CC(O)(C3)C2)c1c[nH]c2cccc(-c3cccs3)c12 (stereo not shown) [Compound 153] ?
Marked response: < 100 nM

* * *

Target: human full length HSD11β1 (Homo sapiens, UniProt P28845)
Construct: transient expression of human full length HSD11β1 expression vector
Experiment: In Vitro HSD11β1 Inhibition Assay
Conditions: CHO cells transiently expressing human HSD11β1; 200 nM cortisone+500 uM NADPH overnight; cortisone to cortisol by LC/MS-MS; read-out: 11βHSD1 (IC50)
readout type: IC50

Check out these entries, answers already filled in.
{"compound": "CC(CC(=O)N1C2CC3CC1CC(C(=O)O)(C3)C2)c1c[nH]c2ncccc12 (stereo not drawn)", "system under test": "human full length HSD11β1 (Homo sapiens, UniProt P28845)", "IC50": "> 250 nM"}
{"compound": "COC12CC3CC(C1)N(C(=O)CC(C)c1c[nH]c4cccc(F)c14)C(C3)C2 (stereo not drawn) [Example 29]", "system under test": "human full length HSD11β1 (Homo sapiens, UniProt P28845)", "IC50": "100 to 150 nM"}
{"compound": "CC(CC(=O)N1C2CC3CC1CC(c1nnn[nH]1)(C3)C2)c1c[nH]c2cccc(Cl)c12 (stereo not drawn)", "system under test": "human full length HSD11β1 (Homo sapiens, UniProt P28845)", "IC50": "> 250 nM"}
{"compound": "CC(CC(=O)N1C2CC3CC1CC(F)(C3)C2)c1nc2ccccc2s1 (stereo not drawn)", "system under test": "human full length HSD11β1 (Homo sapiens, UniProt P28845)", "IC50": "100 to 150 nM"}
{"compound": "COc1cc2c(C(C)CC(=O)N3C4CC5CC3CC(O)(C5)C4)c[nH]c2cc1Cl (stereo not drawn) [Compound 117]", "system under test": "human full length HSD11β1 (Homo sapiens, UniProt P28845)", "IC50": "> 250 nM"}
{"compound": "CC(CC(=O)N1C2CC3CC1CC(C#N)(C3)C2)c1nc2c(Cl)cccc2s1 (stereo not drawn) [Compound 123]", "system under test": "human full length HSD11β1 (Homo sapiens, UniProt P28845)", "IC50": "> 250 nM"}
{"compound": "CC(CC(=O)N1C2CC3CC1CC(CC(=O)O)(C3)C2)c1c[nH]c2cccc(C3CC3)c12 (single isomer, unassigned) [Compound 156]", "system under test": "human full length HSD11β1 (Homo sapiens, UniProt P28845)", "IC50": "> 250 nM"}
{"compound": "CC(CC(=O)N1C2CC3CC1CC(C(=O)O)(C3)C2)c1c[nH]c2cccc(C3CC3)c12 (stereo not drawn) [Example 51]", "system under test": "human full length HSD11β1 (Homo sapiens, UniProt P28845)", "IC50": "> 250 nM"}

Next up:
Exam item: Report IC50 for Cc1cccc2[nH]cc(C(C)CC(=O)N3C4CC5CC3CC(O)(C5)C4)c12 (single isomer, unassigned) please.
Marked response: < 100 nM

* * *

Target: human full length HSD11β1 (Homo sapiens)
Construct: transient expression of human full length HSD11β1 expression vector
Assay: In Vitro HSD11β1 Inhibition Assay
Conditions: CHO cells transiently expressing human HSD11β1; 200 nM cortisone+500 uM NADPH overnight; cortisone to cortisol by LC/MS-MS; read-out: 11βHSD1 (IC50)
Reported IC50 is given for each of the following compounds.

Answered cases to consult:
{"compound": "CC(CC(=O)N1C2CC3CC1CC(O)(C3)C2)c1c[nH]c2ccc(Cl)c(Cl)c12 (single isomer, unassigned) [Compound 172]", "IC50": "> 250 nM"}
{"compound": "CC(CC(=O)N1C2CC3CC1CC(C(=O)O)(C3)C2)c1c[nH]c2ccc(-c3ccccc3)cc12 (stereo not drawn)", "IC50": "> 250 nM"}
{"compound": "O=C(CC(c1ccc(F)cc1)c1c[nH]c2cccc(F)c12)N1C2CC3CC1CC(O)(C3)C2 (stereo not drawn)", "IC50": "< 100 nM"}

Exam item: Looking for the measured IC50 of CC(CC(=O)N1C2CC3CC1CC(O)(C3)C2)c1nc2ccc(Cl)cc2s1 (single isomer, unassigned) [Compound 194] , can you help?
Marked response: < 100 nM

Exam item: Same for Cc1ccc2[nH]cc(C(C)CC(=O)N3C4CC5CC3CC(O)(C5)C4)c2c1C1CC1 (stereo not drawn)
Marked response: 100 to 150 nM

Exam item: Lookup CCC(CC(=O)N1C2CC3CC1CC(O)(C3)C2)c1c[nH]c2ccccc12 (stereo not drawn)
Marked response: 100 to 150 nM

Exam item: # iterate: CC(CC(=O)N1C2CC3CC1CC(O)(C3)C2)c1c[nH]c2cc(Cl)ccc12 (stereo not drawn)
Marked response: 100 to 150 nM

Exam item: One more compound: CC(C)C(CC(=O)N1C2CC3CC1CC(O)(C3)C2)c1c[nH]c2ncccc12 (stereo not drawn)
Marked response: > 250 nM

Exam item: Now consider Cc1cccc2c1c(C(C)CC(=O)N1C3CC4CC1CC(O)(C4)C3)cn2S(=O)(=O)c1cccc2cccnc12 (stereo not drawn) .
Marked response: > 250 nM

Exam item: Another: CC(CC(=O)N1C2CC3CC1CC(C#N)(C3)C2)c1c[nH]c2ncc(Cl)cc12 (stereo not drawn)
Marked response: > 250 nM

Exam item: # repeat for Cc1ccc2c(c1Cl)C(C(C)CC(=O)N1C3CC4CC1CC(O)(C4)C3)C(=O)N2 (stereo not drawn)
Marked response: 150 to 200 nM

Exam item: What do you have for CC(CC(=O)N1C2CC3CC1CC(O)(C3)C2)c1c[nH]c2ccccc12 (single isomer, unassigned) [Example 21] ?
Marked response: > 250 nM

* * *

Molecular target: human full length HSD11β1 (Homo sapiens, UniProt P28845)
Construct: transient expression of human full length HSD11β1 expression vector
Assay: In Vitro HSD11β1 Inhibition Assay
Settings: CHO cells transiently expressing human HSD11β1; 200 nM cortisone+500 uM NADPH overnight; cortisone to cortisol by LC/MS-MS; read-out: 11βHSD1 (IC50)
readout type: IC50

Take a look at these entries with their results.
{"molecule": "CC(CC(=O)N1C2CC3CC1CC(O)(C3)C2)c1c[nH]c2ncc(C3CC3)c(C3CC3)c12 (centres unmarked)", "readout type": "IC50", "value reported": "> 250 nM"}
{"molecule": "O=C(CC(c1ccccc1)c1c[nH]c2cccc(F)c12)N1C2CC3CC1CC(O)(C3)C2 (centres unmarked)", "readout type": "IC50", "value reported": "< 100 nM"}

Please find the next molecule below.
Exam item: Which IC50 is reported for this molecule? CC(CC(=O)N1C2CC3CC(C2)CC1C3)c1c[nH]c2ncccc12 (centres unmarked)
Marked response: < 100 nM
